- assay details: in vivo
- protocol conditions: female, C57BL/6, mouse, po, 50 mg/kg
recorded metric: Cmax
Just the number plus its unit, please.

**Q:** Field request: Cmax | item: "Cc1c(CN2CCOCC2)cc(-c2ccc(C(C)C)cc2)n1-c1ccc(F)cc1"
**A:** 1620 nM

###

- assay details: in vitro
- Assay type: in vitro ADME, mouse
- protocol conditions: mouse, 0.5 µM, pH 7.4
recorded metric: Cli mouse (mL/min/g)
Give the quantity in mL/min/g, number only.

**Q:** Query: Cli mouse; subject: Cc1ccc(-n2c(-c3ccc(Cl)cc3)cc(CN3CCOCC3)c2C)cc1 [Compound 14]
**A:** 7.41

**Q:** Which Cli mouse is reported for this molecule? COc1ccc(-c2cc(CN3CCSCC3)c(C)n2-c2ccc(F)cc2)cc1 [Compound 3]
**A:** 18.76

**Q:** Form field: reported Cli mouse of COc1ccc(-c2cc(CN3CCOCC3)c(C)n2-c2ccc(C)cc2)cc1 [Compound 22]
**A:** 12.62

**Q:** For CCc1ccc(-n2c(-c3ccc(Cl)cc3)cc(CN3CCOCC3)c2C)cc1 [Compound 15] , what is its reported Cli mouse?
**A:** 4.0

**Q:** Reported Cli mouse, molecule COc1ccc(-n2c(-c3ccc(C)cc3)cc(CN3CCOCC3)c2C)cc1 [Compound 18] : ____
**A:** 8.92

###

- assay details: in vivo
- protocol conditions: female, C57BL/6, mouse, po, 50 mg/kg
recorded metric: Tmax (h)
Supply the numeric figure in h, leaving out any unit text.

**Q:** Tmax lookup needed for "Cc1c(CN2CCOCC2)cc(-c2ccc(C(C)C)cc2)n1-c1ccc(F)cc1" , thanks.
**A:** 1

###

- assay details: in vivo
- protocol conditions: female, C57BL/6, mouse, po, 50 mg/kg
recorded metric: half-life (h)
Unit h implied. Number only.

**Q:** // half-life lookup, key: Cc1c(CN2CCOCC2)cc(-c2ccc(C(C)C)cc2)n1-c1ccc(F)cc1 [Compound 9]
**A:** 1

###

- assay details: in vitro
- protocol conditions: plasma, pH 7.4
Give measured fraction unbound at 1 µM for each item. Keep answers brief.
The answer should be a number; do not append a unit.

**Q:** Value lookup for fraction unbound at 1 µM; key = Cc1ccc(-c2cc(CN3CCOCC3)c(C)n2-c2ccc(Cl)cc2)cc1 [Compound 10]
**A:** 0.002

**Q:** Returns the measured fraction unbound at 1 µM for the input compound. Input: CCc1ccc(-c2cc(CN3CCOCC3)c(C)n2-c2ccc(OC)cc2)cc1 [Compound 19]
**A:** 0.003

**Q:** Any idea what fraction unbound at 1 µM was measured for CCc1ccc(-n2c(-c3ccc(OC)cc3)cc(CN3CCOCC3)c2C)cc1 [Compound 23] ?
**A:** 0.002

###

- assay details: physchem
- protocol conditions: pH 2
Provide the reported chromatographic logD of each item.
Answer as a number with no unit attached.

**Q:** # get_value(readout='chromatographic logD', item= "CCCc1ccc(-n2c(-c3ccc(Cl)cc3)cc(CN3CCOCC3)c2C)cc1" )
**A:** 1.72

**Q:** Recorded chromatographic logD for "CCc1ccc(-c2cc(CN3CCOCC3)c(C)n2-c2ccc(F)cc2)cc1" , please?
**A:** 1.26

**Q:** I'd like to know its chromatographic logD. The compound in question is "COc1ccc(-c2cc(CN3CCSCC3)c(C)n2-c2ccc(F)cc2)cc1"
**A:** 1.07

**Q:** Give its chromatographic logD value. Item: "Cc1ccc(-c2cc(CN3CCOCC3)c(C)n2-c2ccc(F)cc2)cc1"
**A:** 1.12

###

- assay details: physchem
- protocol conditions: pH 7.4
recorded metric: chromatographic logD
The answer should be written as a number, with no unit following it.

**Q:** What does the data say about its chromatographic logD? Entry: "CCCc1ccc(-c2cc(CN3CCOCC3)c(C)n2-c2ccc(OC)cc2)cc1"
**A:** 4.46

**Q:** Query: chromatographic logD; subject: "COc1ccc(-n2c(-c3ccc(C(C)C)cc3)cc(CN3CCOCC3)c2C)cc1"
**A:** 4.32

**Q:** Fill blank: measured chromatographic logD of the compound "COc1ccc(-c2cc(CN3CCOCC3)c(C)n2-c2ccc(F)cc2)cc1" is ____.
**A:** 3.32

**Q:** Reported chromatographic logD, compound "Cc1ccc(-c2cc(CN3CCOCC3)c(C)n2-c2ccc(F)cc2)cc1" : ____
**A:** 3.86

**Q:** Suppose we examine the compound "Cc1c(CN2CCOCC2)cc(-c2ccc(C(C)C)cc2)n1-c1ccc(Cl)cc1" ; what chromatographic logD value has been reported?
**A:** 5.13

**Q:** Tell me the measured chromatographic logD of "CCc1ccc(-c2cc(CN3CCOCC3)c(C)n2-c2ccc(F)cc2)cc1" , please.
**A:** 4.21

**Q:** Given the compound "Cc1ccc(-n2c(-c3ccc(Cl)cc3)cc(CN3CCOCC3)c2C)cc1" , what is its reported chromatographic logD?
**A:** 4.53

**Q:** Query: chromatographic logD; subject: "CCCc1ccc(-c2cc(CN3CCOCC3)c(C)n2-c2ccc(Cl)cc2)cc1"
**A:** 5.3

**Q:** Form field: reported chromatographic logD of "CCc1ccc(-n2c(-c3ccc(Cl)cc3)cc(CN3CCOCC3)c2C)cc1"
**A:** 5.01

**Q:** # get_value(readout='chromatographic logD', item= "CCCc1ccc(-n2c(-c3ccc(Cl)cc3)cc(CN3CCOCC3)c2C)cc1" )
**A:** 5.61

**Q:** Could you tell me which chromatographic logD is on file for "Cc1c(CN2CCN(C)CC2)cc(-c2ccc(Cl)cc2)n1-c1ccc(Cl)cc1" ?
**A:** 4.51

**Q:** Consider the compound shown here: "CCc1ccc(-c2cc(CN3CCOCC3)c(C)n2-c2ccc(Cl)cc2)cc1" What is its recorded chromatographic logD?
**A:** 4.77

**Q:** Which chromatographic logD is listed for "Cc1c(CN2CCOCC2)cc(-c2ccc(Cl)cc2)n1-c1ccc(C(C)C)cc1" ?
**A:** 5.43

**Q:** Dear colleague, I am looking for the recorded chromatographic logD of the following compound: "Cc1c(CN2CCOCC2)cc(-c2ccc(C(C)C)cc2)n1-c1ccc(F)cc1"
**A:** 4.57

**Q:** Consider the compound "COc1ccc(-c2cc(CN3CCOCC3)c(C)n2-c2ccc(C)cc2)cc1" and give its measured chromatographic logD.
**A:** 3.57

**Q:** So what's the measured chromatographic logD for this one? "CCc1ccc(-c2cc(CN3CCOCC3)c(C)n2-c2ccc(OC)cc2)cc1"
**A:** 3.99

**Q:** Recorded chromatographic logD for "CCc1ccc(-n2c(-c3ccc(OC)cc3)cc(CN3CCOCC3)c2C)cc1" , please?
**A:** 4.05

**Q:** For "Cc1ccc(-c2cc(CN3CCOCC3)c(C)n2-c2ccc(Cl)cc2)cc1" , what is its reported chromatographic logD?
**A:** 4.4

###

- assay details: in vivo
- protocol conditions: female, C57BL/6, mouse, po, 50 mg/kg
recorded metric: AUC(0-inf) (µM·h)
Write the answer as a number in µM·h, unit excluded.

**Q:** Consider the molecule shown here: "Cc1c(CN2CCOCC2)cc(-c2ccc(C(C)C)cc2)n1-c1ccc(F)cc1" What is its recorded AUC(0-inf)?
**A:** 11.6

###

- assay details: physchem
- protocol conditions: pH 7.4
recorded metric: chromatographic logD
Simply state the number, no unit and no words.

**Q:** // query chromatographic logD value for entry "COc1ccc(-c2cc(CN3CCSCC3)c(C)n2-c2ccc(F)cc2)cc1"
**A:** 3.97

**Q:** Which chromatographic logD is reported for this compound? "COc1ccc(-n2c(-c3ccc(C)cc3)cc(CN3CCOCC3)c2C)cc1"
**A:** 3.6

**Q:** chromatographic logD lookup needed for "CSc1ccc(-c2cc(CN3CCOCC3)c(C)n2-c2ccc(F)cc2)cc1" , thanks.
**A:** 3.82

**Q:** Name the recorded chromatographic logD for "Cc1ccc(-c2cc(CN3CCSCC3)c(C)n2-c2ccc(F)cc2)cc1" .
**A:** 4.54

**Q:** Report chromatographic logD for "CSc1ccc(-c2cc(CN3CCSCC3)c(C)n2-c2ccc(F)cc2)cc1" please.
**A:** 4.52

###

- assay details: in vitro
- Type: in vitro ADME, mouse
- protocol conditions: pH 7.4; mouse microsomes; read-out: t1/2 in mouse microsomes
recorded metric: half-life (min)
Note: unit min is implicit; provide only the numeric part.

**Q:** Can you look up the measured half-life of "COc1ccc(-c2cc(CN3CCOCC3)c(C)n2-c2ccc(F)cc2)cc1" for me?
**A:** 15.9

**Q:** What does the record list as half-life for "CCCc1ccc(-c2cc(CN3CCOCC3)c(C)n2-c2ccc(OC)cc2)cc1" ?
**A:** 10.9

**Q:** Returns the measured half-life for the input compound. Input: "COc1ccc(-n2c(-c3ccc(C(C)C)cc3)cc(CN3CCOCC3)c2C)cc1"
**A:** 10.7

**Q:** Recorded half-life of "Cc1ccc(-c2cc(CN3CCOCC3)c(C)n2-c2ccc(F)cc2)cc1" , please.
**A:** 20.4

**Q:** Entry "CCc1ccc(-n2c(-c3ccc(Cl)cc3)cc(CN3CCOCC3)c2C)cc1" : reported half-life = ?
**A:** 18.5

**Q:** Request the reported half-life associated with "Cc1ccc(-n2c(-c3ccc(Cl)cc3)cc(CN3CCOCC3)c2C)cc1"
**A:** 9.69

**Q:** Look at this compound and give its reported half-life. "CCc1ccc(-c2cc(CN3CCOCC3)c(C)n2-c2ccc(Cl)cc2)cc1"
**A:** 25

**Q:** Return reported half-life; argument: "Cc1ccc(-c2cc(CN3CCOCC3)c(C)n2-c2ccc(Cl)cc2)cc1"
**A:** 25.7

**Q:** I am curious: what half-life value has been reported for "Cc1ccc(-c2cc(CN3CCSCC3)c(C)n2-c2ccc(F)cc2)cc1" ?
**A:** 8.2

**Q:** # query: half-life of entry "Cc1c(CN2CCOCC2)cc(-c2ccc(Cl)cc2)n1-c1ccc(C(C)C)cc1"
**A:** 19.6
